# Test system: Hepatocyte
# assay.explanation: Retention time of the compound in human hepatocytes treated with 20(S)-protopanaxadiol at 50 uM after 180 mins by liquid chromatography-electrospray ionization ion trap mass spectrometry
# Type: ADME, cell-based
# condition.summary: 3 h
reported.property: Retention_time (min)

smiles.str	endpoint.result
CC(C)(O)[C@@H](O)CC[C@](C)(O)[C@H]1CC[C@]2(C)[C@@H]1[C@H](O)C[C@@H]1[C@@]3(C)CC[C@H](O)C(C)(C)[C@@H]3CC[C@]12C	13.2
CC(C)(O[C@@H]1O[C@H](C(=O)O)[C@@H](O)[C@H](O)[C@H]1O)[C@@H]1CC[C@@](C)([C@H]2CC[C@]3(C)[C@@H]2[C@H](O)C[C@@H]2[C@@]4(C)CC[C@H](O)C(C)(C)[C@@H]4CC[C@]23C)O1	16
CC(C)(O[C@@H]1O[C@H](C(=O)O)[C@@H](O)[C@H](O)[C@H]1O)[C@H]1CC[C@@](C)([C@H]2CC[C@]3(C)[C@@H]2[C@H](O)C[C@@H]2[C@@]4(C)CC[C@H](O)C(C)(C)[C@@H]4CC[C@]23C)O1	16.9
CC(C)(O)[C@H](O)CC[C@](C)(O)[C@H]1CC[C@]2(C)[C@@H]1[C@H](O)C[C@@H]1[C@@]3(C)CC[C@H](O)C(C)(C)[C@@H]3CC[C@]12C	15.8
